B1: KRT34 (parent)
chain: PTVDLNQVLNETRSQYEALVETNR

# Variants of: B1
# test-method-notes: protein stability index of a GFP-peptide fusion (GPS, HEK-293T) (PSI 1-6); higher = more stable;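 also: lentivirally expressed fusions sorted by FACS into six bins by GFP to DsRed ratio, PSI derived from sequencing read proportions per bin multiplied by bin number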
# condition-context: c terminus: a fixed tail appended
parameter-measured: protein stability index

* PTVCLNQVLNETRSQYEALVETNR [D4C] | 2.97
* PTVDLNQVLNHTRSQYEALVETNR [E11H] | 4.18
* PTVDLNQVLNETRSQYEALVEDNR [T22D] | 4.58
* PTVDLNQVLNETRSQYHALVETNR [E17H] | 3.93
* PTVDLNQVLNETRSQYEALVEYNR [T22Y] | 4.23
* PTVDLNQVLNETRSQYGALVETNR [E17G] | 4.02
* PTVDLNQVLNETRSQYEALTETNR [V20T] | 4.25
* PTVDLNVVLNETRSQYEALVETNR [Q7V] | 2.37
* PTWDLNQVLNETRSQYEALVETNR [V3W] | 5.02
* PTVDLNQVLNFTRSQYEALVETNR [E11F] | 3.22
* PTVDLNQVLNETRSQYEALVEWNR [T22W] | 4.02
* PPVDLNQVLNETRSQYEALVETNR [T2P] | 3.01
* PTVDLNQVLNESRSQYEALVETNR [T12S] | 3.54
* PTVDLNQVLNETTSQYEALVETNR [R13T] | 4.27
* PTVDLNQVYNETRSQYEALVETNR [L9Y] | 3.61
* PTVDLNQVLNETRSQYEALVEHNR [T22H] | 3.99
* PTVDLNQWLNETRSQYEALVETNR [V8W] | 2.56
* PTQDLNQVLNETRSQYEALVETNR [V3Q] | 3.05
* PTVDLNQVLNYTRSQYEALVETNR [E11Y] | 3.72
* PTVDLNQVLNETRSQYEALVETNH [R24H] | 4.08
* PTVDLNQVLNETRSQYEALVETNQ [R24Q] | 4.18
* PTVDLNQVLNETRSQYEALVETNG [R24G] | 4.17
* PTVDLNQVLNETRSQYEYLVETNR [A18Y] | 3.6
* PTVDLNQVLNETRSQYEALVQTNR [E21Q] | 4.3
* PTVDLNQVLNETRSQYEALVETSR [N23S] | 4.39
* PTVDLNQVLNETRSQTEALVETNR [Y16T] | 4.58
* PTVDLEQVLNETRSQYEALVETNR [N6E] | 2.56
* PTVMLNQVLNETRSQYEALVETNR [D4M] | 3.21
* PTVDLNQVLNEFRSQYEALVETNR [T12F] | 2.4
* PTVDLNQVLNETRSQYEALVEFNR [T22F] | 3.78
* PTVDLNQVLNETRSQYEALVEANR [T22A] | 4.01
* PTVDLNQVLNETRSQYEALVETNL [R24L] | 2.68
* PTVDLNQYLNETRSQYEALVETNR [V8Y] | 2.29
* PTVDLNQVSNETRSQYEALVETNR [L9S] | 5.03
* PTVDLLQVLNETRSQYEALVETNR [N6L] | 2.14
* PTVDLNQVLNETRSQYEALVETYR [N23Y] | 3.52
* PTVDLNQVLNETRSQYEMLVETNR [A18M] | 3.74
* PTVDLNQVLNETRSQYEALVETER [N23E] | 5.16
* PIVDLNQVLNETRSQYEALVETNR [T2I] | 2.99
* PTVDLNQVLTETRSQYEALVETNR [N10T] | 2.75
* PTVDLNQPLNETRSQYEALVETNR [V8P] | 4.2
* PTVDLNQVLNETRSLYEALVETNR [Q15L] | 2.25
* PTVDLNQVLNCTRSQYEALVETNR [E11C] | 3.91
* PTVQLNQVLNETRSQYEALVETNR [D4Q] | 4.34
* PTVDLNQVLNETRSQYEALIETNR [V20I] | 4
* PSVDLNQVLNETRSQYEALVETNR [T2S] | 3.27
* HTVDLNQVLNETRSQYEALVETNR [P1H] | 3.97
* PTVDLNQVLNEPRSQYEALVETNR [T12P] | 4.12
* PTVDLNQVLWETRSQYEALVETNR [N10W] | 3.02
* PTVYLNQVLNETRSQYEALVETNR [D4Y] | 3.44
* PTVDLVQVLNETRSQYEALVETNR [N6V] | 2
* PTVHLNQVLNETRSQYEALVETNR [D4H] | 3.56
* PTVDLNQVINETRSQYEALVETNR [L9I] | 3.14
* PTVDFNQVLNETRSQYEALVETNR [L5F] | 3.92
* PTVDLNQVLHETRSQYEALVETNR [N10H] | 3.19
* PTVDLWQVLNETRSQYEALVETNR [N6W] | 2.5
* PTVDLNQVLNITRSQYEALVETNR [E11I] | 3.42
* PTVDLNQVLNETRWQYEALVETNR [S14W] | 2.74
* PTVDLNTVLNETRSQYEALVETNR [Q7T] | 2.75
* PTVDLNQVLNETRSQQEALVETNR [Y16Q] | 5.57
* PTVDLNQVLNETASQYEALVETNR [R13A] | 3.85
* PTVDLNQVLNETRSQWEALVETNR [Y16W] | 3.63
